ASSAY SYSTEM: Histone deacetylase 8 (Schistosoma mansoni) (UniProt A5H660)
Sequence (whole entry): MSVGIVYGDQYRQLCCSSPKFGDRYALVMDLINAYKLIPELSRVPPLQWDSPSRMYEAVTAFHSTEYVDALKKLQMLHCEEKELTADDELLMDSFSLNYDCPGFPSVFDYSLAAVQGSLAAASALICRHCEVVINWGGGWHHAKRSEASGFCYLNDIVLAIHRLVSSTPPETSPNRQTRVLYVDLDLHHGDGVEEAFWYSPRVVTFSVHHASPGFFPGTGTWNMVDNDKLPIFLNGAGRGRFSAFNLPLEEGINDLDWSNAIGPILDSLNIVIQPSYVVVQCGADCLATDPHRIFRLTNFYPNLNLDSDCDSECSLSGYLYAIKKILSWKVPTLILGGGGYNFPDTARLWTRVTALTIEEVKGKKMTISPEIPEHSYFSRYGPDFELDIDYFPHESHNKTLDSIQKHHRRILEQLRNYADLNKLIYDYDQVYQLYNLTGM
MEASUREMENT NOTES: Inhibition of Schistosoma mansoni KDAC8 at 30 uM using (FAM)-labeled peptide as substrate after 60 mins by microfluidic assay
Calls of active or inactive are those of the source. The calls are words filed in the database; no cut-off is given here.
READOUT NAME: inhibition

Example cases with answers are listed next.
[
  {
    "COMPOUND": "CSCC[C@@H]1N=C(c2ccccc2)c2ccccc2N(CCCCC(=O)NO)C1=O",
    "ASSAY SYSTEM": "Histone deacetylase 8 (Schistosoma mansoni) (UniProt A5H660)",
    "REPORTED MEASUREMENT": "19.3%"
  },
  {
    "COMPOUND": "CC(C)[C@@H]1NC(=O)[C@H]2CCCN2C(=O)[C@@H]2CCCN2C(=O)C[C@@H](C(=O)NCCCSCCN)NC1=O",
    "ASSAY SYSTEM": "Histone deacetylase 8 (Schistosoma mansoni) (UniProt A5H660)",
    "REPORTED MEASUREMENT": "0%"
  },
  {
    "COMPOUND": "CC(C)[C@@H]1NC(=O)[C@@H]2CCCN2C(=O)[C@H]2CCCN2C(=O)C[C@@H](C(=O)NCCCS(C)(=O)=O)NC1=O",
    "ASSAY SYSTEM": "Histone deacetylase 8 (Schistosoma mansoni) (UniProt A5H660)",
    "REPORTED MEASUREMENT": "0%"
  },
  {
    "COMPOUND": "O=C(CCCCN1C(=O)[C@H](CO)N=C(c2ccccc2)c2ccccc21)NO",
    "ASSAY SYSTEM": "Histone deacetylase 8 (Schistosoma mansoni) (UniProt A5H660)",
    "REPORTED MEASUREMENT": "0.46%"
  },
  {
    "COMPOUND": "O=C(O)C[C@@H]1N=C(c2ccccc2)c2ccccc2NC1=O",
    "ASSAY SYSTEM": "Histone deacetylase 8 (Schistosoma mansoni) (UniProt A5H660)",
    "REPORTED MEASUREMENT": "0%"
  }
]

For the compound COC(=O)CCCCN1C(=O)[C@H](CCSC)N=C(c2ccccc2)c2ccccc21 , report inhibition.
0%

For the compound CC(C)(C)OC(=O)CC[C@@H]1N=C(c2ccccc2)c2ccccc2N(CCCCC(=O)O)C1=O , give its measured inhibition value.
0%

Tell us which inhibition value is on record for CSC1=NC=C(C#N)C2=NC(c3ccc(Cl)cc3)NN12 (stereo not given)
inactive

Annotate the compound CC(C)[C@@H]1NC(=O)[C@@H]2CCCN2C(=O)[C@@H]2CCCN2C(=O)C[C@@H](C(=O)NCCCC(=O)NO)NC1=O with its measured inhibition.
32%
